# ASSAY INFO: Relative stability in phosphate buffer, pH 7.0 (control)
# Assay type: physicochemical
# COND: 37° C., 60 minutes, drug solution 100-300 μg/ml, read-out: Relative stability: drug remaining as a percentage of initial concentration
Measured remaining at 1 h accompanies every entry in the list below.
Give the value in % but do not write % after it.

In the examples that follow, each entry is paired with its recorded remaining at 1 h.
CCC1C(=O)N2C(C(=O)O)=C(SCCNC(=O)CCNC(=O)C(O)C(C)(C)CO)CC12 (centres unmarked) [Antibiotic OA-6129A] ... 100
CCC1C(=O)N2C(C(=O)O)=C(SCCNC(=O)CCNC(=O)C(O)C(C)(C)COP(=O)(O)O)CC12 (centres unmarked) [Phosphoric ester of antibiotic OA-6129A] ... 114
CC(O)C1C(=O)N2C(C(=O)O)=C(SCCNC(=O)CCNC(=O)C(O)C(C)(C)CO)CC12 (centres unmarked) [Antibiotic OA-6129B] ... 98
CC(O)C1C(=O)N2C(C(=O)O)=C(SCCNC(=O)CCNC(=O)C(O)C(C)(C)COP(=O)(O)O)CC12 (centres unmarked) [Phosphoric ester of antibiotic OA-6129B] ... 100

Now for a further molecule.
Input CCC1C(=O)N2C(C(=O)O)=C(SCCNC(C)=O)CC12 (centres unmarked) [Antibiotic PS-5] . Output remaining at 1 h: 100

* * *

In this section we review reported remaining at 1 h values for a set of compounds.
# ASSAY INFO: Relative stability in kidney homogenate of man
# Assay type: in vitro ADME
# COND: human (man) kidney homogenate; 37° C., 60 minutes; drug solution 100-300 μg/ml; read-out: Relative stability: drug remaining as a percentage of initial concentration
# Procedure: *A drug solution (100-300 μg/ml) (0.1 ml) and a kidney homogenate (0.1 ml) were allowed to react at 37° C. for 60 minutes and the mixture was immediately heattreated at 100° C. for 15 seconds. After centrifugation, the concentration of the drug remaining in the supernatan solution was bioassayed as a percentage of initial concentration by […] An overnight culture of Comamonas terrigena B-996 on a nutrient agar slant was suspended in nutrient broth to give a cell suspension of absorbance 0.04 at 610 nm. […]
Note: a bare number is incomplete; add the unit.

Worked set:
CC(O)C1C(=O)N2C(C(=O)O)=C(SCCNC(=O)CCNC(=O)C(O)C(C)(C)COP(=O)(O)O)CC12 (centres unmarked) [Phosphoric ester of antibiotic OA-6129B] ... 72%
CCC1C(=O)N2C(C(=O)O)=C(SCCNC(=O)CCNC(=O)C(O)C(C)(C)CO)CC12 (centres unmarked) [Antibiotic OA-6129A] ... 57%
CCC1C(=O)N2C(C(=O)O)=C(SCCNC(=O)CCNC(=O)C(O)C(C)(C)COP(=O)(O)O)CC12 (centres unmarked) [Phosphoric ester of antibiotic OA-6129A] ... 96%
CC(O)C1C(=O)N2C(C(=O)O)=C(SCCNC(=O)CCNC(=O)C(O)C(C)(C)CO)CC12 (centres unmarked) [Antibiotic OA-6129B] ... 47%

// next entry
For CCC1C(=O)N2C(C(=O)O)=C(SCCNC(C)=O)CC12 (centres unmarked) [Antibiotic PS-5] the compound record lists remaining at 1 h as 28%

* * *

# System: Serratia marcescens T55
# ASSAY INFO: Minimum inhibitory concentration, agar dilution technique
# Type: cell-based
# COND: beta-lactam-resistant strain, heart infusion agar, inoculum 10^6 cells/ml, read-out: Minimum Inhibitory Concentration (M.I.C.)
READOUT NAME: MIC (µg/mL)
Number in µg/mL, nothing else.

CCC1C(=O)N2C(C(=O)O)=C(SCCNC(=O)CCNC(=O)C(O)C(C)(C)CO)CC12 (stereo not shown) [Antibiotic OA-6129A] ... 100

Per the records, this compound ( CC(O)C1C(=O)N2C(C(=O)O)=C(SCCNC(=O)CCNC(=O)C(O)C(C)(C)COP(=O)(O)O)CC12 (stereo not shown) [Phosphoric ester of antibiotic OA-6129B] ) has MIC equal to 25

* * *

# Test system: Escherichia coli K-12
# ASSAY INFO: Minimum inhibitory concentration, agar dilution technique
# Assay type: cell-based
# COND: K12, heart infusion agar, inoculum 10^6 cells/ml, read-out: Minimum Inhibitory Concentration (M.I.C.)
READOUT NAME: MIC

CC(O)C1C(=O)N2C(C(=O)O)=C(SCCNC(=O)CCNC(=O)C(O)C(C)(C)COP(=O)(O)O)CC12 (stereo not shown) [Phosphoric ester of antibiotic OA-6129B] ... 12.5 µg/mL
CCC1C(=O)N2C(C(=O)O)=C(SCCNC(=O)CCNC(=O)C(O)C(C)(C)CO)CC12 (stereo not shown) [Antibiotic OA-6129A] ... 12.5 µg/mL
CCC1C(=O)N2C(C(=O)O)=C(SCCNC(=O)CCNC(=O)C(O)C(C)(C)COP(=O)(O)O)CC12 (stereo not shown) [Phosphoric ester of antibiotic OA-6129A] ... 3.13 µg/mL

Kindly consider the entry below.
Entry Cc1nnc(SCC2=C(C(=O)O)N3C(=O)[C@@H](NC(=O)Cn4cnnn4)[C@H]3SC2)s1 , MIC reported as 1.56 µg/mL

* * *

# ASSAY INFO: Relative stability in kidney homogenate of dog
# Type: in vitro ADME
# COND: 37° C., 60 minutes, drug solution 100-300 μg/ml, read-out: Relative stability: drug remaining as a percentage of initial concentration
We label by threshold. Values of remaining at 1 h strictly beneath 20% are Y. Values of 20% and up are N.

CC(O)C1C(=O)N2C(C(=O)O)=C(SCCNC(=O)CCNC(=O)C(O)C(C)(C)COP(=O)(O)O)CC12 (centres unmarked) [Phosphoric ester of antibiotic OA-6129B] ... N
CCC1C(=O)N2C(C(=O)O)=C(SCCNC(=O)CCNC(=O)C(O)C(C)(C)COP(=O)(O)O)CC12 (centres unmarked) [Phosphoric ester of antibiotic OA-6129A] ... Y
CCC1C(=O)N2C(C(=O)O)=C(SCCNC(=O)CCNC(=O)C(O)C(C)(C)CO)CC12 (centres unmarked) [Antibiotic OA-6129A] ... N

Okay, now this molecule:
INPUT: Find out if reported remaining at 1 h for CCC1C(=O)N2C(C(=O)O)=C(SCCNC(C)=O)CC12 (centres unmarked) [Antibiotic PS-5] is less than 20%
OUTPUT: Y

* * *

Recorded MIC, one value per entry.
# Tested on: Staphylococcus epidermidis
# ASSAY INFO: Minimum inhibitory concentration, agar dilution technique
# Format: cell-based
# COND: heart infusion agar, inoculum 10^6 cells/ml, read-out: Minimum Inhibitory Concentration (M.I.C.)

Some entries whose results are on file:
CC(O)C1C(=O)N2C(C(=O)O)=C(SCCNC(=O)CCNC(=O)C(O)C(C)(C)COP(=O)(O)O)CC12 (stereo not shown) [Phosphoric ester of antibiotic OA-6129B] ... > 25 µg/mL
CCC1C(=O)N2C(C(=O)O)=C(SCCNC(=O)CCNC(=O)C(O)C(C)(C)COP(=O)(O)O)CC12 (stereo not shown) [Phosphoric ester of antibiotic OA-6129A] ... 6.25 µg/mL
CCC1C(=O)N2C(C(=O)O)=C(SCCNC(=O)CCNC(=O)C(O)C(C)(C)CO)CC12 (stereo not shown) [Antibiotic OA-6129A] ... 1.56 µg/mL

Sample Cc1nnc(SCC2=C(C(=O)O)N3C(=O)[C@@H](NC(=O)Cn4cnnn4)[C@H]3SC2)s1 ; MIC observed: 0.2 µg/mL

* * *

# ASSAY INFO: Relative stability in kidney homogenate of mouse
# Assay type: in vitro ADME
# COND: 37° C., 60 minutes, drug solution 100-300 μg/ml, read-out: Relative stability: drug remaining as a percentage of initial concentration
Reported remaining at 1 h values for the following compounds.
// units = %; emit number, no label

The examples below pair each entry with its known result.
CC(O)C1C(=O)N2C(C(=O)O)=C(SCCNC(=O)CCNC(=O)C(O)C(C)(C)CO)CC12 (centres unmarked) [Antibiotic OA-6129B] ... 20
CC(O)C1C(=O)N2C(C(=O)O)=C(SCCNC(=O)CCNC(=O)C(O)C(C)(C)COP(=O)(O)O)CC12 (centres unmarked) [Phosphoric ester of antibiotic OA-6129B] ... 42
CCC1C(=O)N2C(C(=O)O)=C(SCCNC(C)=O)CC12 (centres unmarked) [Antibiotic PS-5] ... 10
CCC1C(=O)N2C(C(=O)O)=C(SCCNC(=O)CCNC(=O)C(O)C(C)(C)CO)CC12 (centres unmarked) [Antibiotic OA-6129A] ... 7

We next turn to a different compound, shown below.
// remaining at 1 h value for CCC1C(=O)N2C(C(=O)O)=C(SCCNC(=O)CCNC(=O)C(O)C(C)(C)COP(=O)(O)O)CC12 (centres unmarked) [Phosphoric ester of antibiotic OA-6129A] : 47
